molecular target: T1, BSA (UniProt P02769 25-607); experiment: ELISA, plate coated with BSA, hybridoma supernatant
T1 construct: Control coating protein of the ELISA
T1 sequence (P02769 25-607 limits assumed): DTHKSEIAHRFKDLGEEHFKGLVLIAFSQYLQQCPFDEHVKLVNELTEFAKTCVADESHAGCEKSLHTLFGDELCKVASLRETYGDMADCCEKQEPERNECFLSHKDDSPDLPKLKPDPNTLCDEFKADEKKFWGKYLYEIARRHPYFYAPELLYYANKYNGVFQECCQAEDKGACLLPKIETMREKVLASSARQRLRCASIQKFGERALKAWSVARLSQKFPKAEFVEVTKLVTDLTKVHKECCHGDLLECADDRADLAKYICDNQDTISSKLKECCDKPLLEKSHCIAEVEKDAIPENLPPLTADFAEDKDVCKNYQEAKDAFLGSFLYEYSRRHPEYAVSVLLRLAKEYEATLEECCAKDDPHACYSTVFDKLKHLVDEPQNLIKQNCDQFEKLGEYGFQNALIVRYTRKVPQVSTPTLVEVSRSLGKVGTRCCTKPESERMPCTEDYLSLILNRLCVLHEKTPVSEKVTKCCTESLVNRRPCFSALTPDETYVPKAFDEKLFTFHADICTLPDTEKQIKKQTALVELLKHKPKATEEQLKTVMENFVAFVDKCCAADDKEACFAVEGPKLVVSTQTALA
readoutKind: OD450 (OD450)
Entry rule: numbers only, all in OD450.

Incoming: Would you mind telling me what OD450 value was observed for 1H10 (hybridoma clone supernatant) (antibody, V domains shown, Hybridoma supernatant from mice encoding human heavy and kappa variable regions) VH: QVQLVESGGGVVQPGRSLRLSCVASGFTFSSYGMHWVRQAPGKGLEWVTFIWYDGSNKNYADSVKGRFTISRDNSKNTLNLQMNSLRVEDTAVYYCARDRYSSGWDVFDYWGQGTLVTVSS VL: DIQMTQSPSSVSASVGDRVTITCRASQDISSWLAWYQQQPGKAPKLQIYAASSLQSGVPSRFSGSGSGTDFTLTISSLQPEDFATYYCQQAKSFPPTFGQGTKVEIK ?
Outgoing: 0.0399

Incoming: Reported OD450 for 9E2 (hybridoma clone supernatant) (antibody, V domains shown, Hybridoma supernatant) VH: EVQLVESGGGVVRPGGSLRLSCAASGFTFDNYGMSWVRQAPGKGLEWVSGINWNGGSTYYADSVRGRFTISRDNAKNSLYLQMNSLRAEDTALYYCARGSRYNWSYDAFDIWGQGTLVTVSS VL: DIQMTQSPSSLSASVGDRVTITCRASQGVRNALGWYQQKPGKAPKRLIYAASSLQSGVPSRFSGSGSGTEFTLTISSLQPEDFATYYCLQHNSYPFTFGPGTKVEIK : what is it?
Outgoing: 0.0429

Incoming: Given the binder 13C7 (hybridoma clone supernatant) (antibody, V domains shown, Hybridoma supernatant) VH: QITLKESGPTLVKPTQTLTLTCTFSGFSLSTSGVGVGWIRQPPGKALEWLALIYWNDDKRYRPSLKNRLTITKDTSKNQVVLTMTNMDPVDTATYYCTHYGVTAPFYNWFDPWGQGTLVTVSS VL: DIQMTQSPSSLSASVGDRVTITCRASQSITSYLNWYQQKPGKAPKLLIYAASSLQSGVPSRFSGSGSGTDFTLTISSLQPEDFATYYCQRSYSTLTFGGGTKVEIK , what is its reported OD450?
Outgoing: 0.0432

Incoming: What does the record list as OD450 for 19C7 (hybridoma clone supernatant) (antibody, V domains shown, Hybridoma supernatant) VH: QITLKESGPTLVKPTQTLTLTCTFSGISLSTGGVGVGWIRQPPGKALEWLSLIYWNDDKRYSPSLKSRLTITKDSSKNQVVLTMTNMDPVDTATYYCAHSGLAAPFYNWFDPWGQGTLVTVSS VL: DIQMTQSPSSLSASVGDRVTITCRASQSISNYLNWYQLKPGNAPKLLIFAASSLQSGVPSRFSGSGSGTDFTLTISSLQPEDFATYFCQRSYSTLTFGGGTKVEIK ?
Outgoing: 0.0468

Now let's try a different one.
Incoming: Record request: OD450 value, item 15A4 (hybridoma clone supernatant) (antibody, V domains shown, Hybridoma supernatant) VH: QVQLVESGGGVVQPGRSLRLSCAASGFNFSSYGMHWVRQAPGKGLEWVAFVWYDGSNQNYADSVKGRFTISRDNSNNTLYLQMNSLRAEDTAVYYCARDRYSSGWDVFDYWGQGTLVTVSS VL: DIQMTQSPSSVSASVGDRVTITCRASQGISSWLAWYQQKPGKAPKLLIFAASSLQSGVPSRFSGSGSGTGFTLTISSLQPEDFATYYCQQAKSFPPTFGQGTKVEIK
Outgoing: 0.0431
